Biological target: Alpha-2C adrenergic receptor (Homo sapiens, UniProt P18825)
Sequence (P18825 whole entry): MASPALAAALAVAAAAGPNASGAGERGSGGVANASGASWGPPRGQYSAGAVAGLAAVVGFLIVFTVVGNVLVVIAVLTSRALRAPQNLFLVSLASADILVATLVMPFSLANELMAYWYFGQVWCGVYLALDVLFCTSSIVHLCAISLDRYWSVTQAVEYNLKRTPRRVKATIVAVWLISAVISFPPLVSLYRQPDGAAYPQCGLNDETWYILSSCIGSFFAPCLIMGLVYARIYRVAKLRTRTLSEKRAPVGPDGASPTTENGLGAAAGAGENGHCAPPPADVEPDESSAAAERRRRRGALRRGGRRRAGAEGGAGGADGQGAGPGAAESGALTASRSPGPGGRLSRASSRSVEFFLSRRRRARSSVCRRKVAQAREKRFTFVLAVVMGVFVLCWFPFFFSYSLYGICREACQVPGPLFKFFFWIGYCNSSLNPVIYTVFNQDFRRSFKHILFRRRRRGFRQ
measured-endpoint: Ki (nM)
Quick reminder: number only, in nM, skip the unit.

### Prompt Reported Ki for CN(CCc1cccc(F)c1)[C@H]1C2C3CC4C5C3CC2C5C41 (stereo partly specified) : what is it?
### Response 2070

Source of measurements: ChEMBL document CHEMBL1641373
